# tested-system: T1, human FSTL1 (construct not stated) (human, UniProt Q12841 21-308)
# T1 construct: also called human FSTL1 antigen; FSTL1 (R&D Systems, Inc. Cat#1694-FN-050)
# T1 sequence: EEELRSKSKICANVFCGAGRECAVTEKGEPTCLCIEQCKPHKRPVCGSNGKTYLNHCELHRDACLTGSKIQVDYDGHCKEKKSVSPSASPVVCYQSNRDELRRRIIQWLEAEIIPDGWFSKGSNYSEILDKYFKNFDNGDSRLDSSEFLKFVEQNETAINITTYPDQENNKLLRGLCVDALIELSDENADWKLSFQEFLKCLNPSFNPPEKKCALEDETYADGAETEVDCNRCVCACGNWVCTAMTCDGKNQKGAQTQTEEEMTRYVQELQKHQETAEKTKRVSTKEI
# experiment: SPR (Biacore T-200), captured antibody, human FSTL1 10 µg/ml
Exercise: state measured Binding amount (RU) for each of the binders provided.
Respond with the bare value in RU.

Output measured Binding amount (RU) for this item: anti-FSTL1 antibody clone #6-55 (chicken-mouse chimeric antibody) (antibody, mouse IgG1, kappa, V domains shown, also called Anti-FSTL1 mAb (#6-55)) VH: AVTLDESGGGLQTPGGALSLVCKGSGFTFTSVTMQWVRQAPGKGLEWVASVCSGSSTYYAPAVKGRATISRDNGQSTVRLQLSNLRPEDTGTYYCAKIAGRARWSCTSAAYNIDAWGHGTEVIVSS VL: ASTQPSSVSAIPGETVKITCSGGGNNYGWYQQRSPGSAPVTVIYYNDNRPSNIPSRFSGSTSGSTSTLTITGVQADDEAIYYCGSWDSNTDSGIFGAGTTLTVLG
11

Output measured Binding amount (RU) for this item: anti-FSTL1 antibody clone #13 (chicken-mouse chimeric antibody) (antibody, mouse IgG1, kappa, V domains shown) VH: AVTLDESGGGLQTPGGGLSLVCKASGFTFSSVTMQWVRQAPGKGLEWVASICSGSSTYYGPAVKGRATISRDNGQNTVRLQLNNLRAEDTATYYCAKIVGRGRWSCTSAAYNIDAWGHGTEVIVSS VL: ASTQPSSVSANPGETVKITCSGGGNNYGWYQQKSPGSAPVTVIYNNNNRPSNIPSRFSGSKSGSTNTLTITGVQAEDEAVYYCGSYDSSSDSGIFGAGTTLTVLG
8.7

Output measured Binding amount (RU) for this item: anti-FSTL1 antibody clone #8-1 (chicken-mouse chimeric antibody) (antibody, mouse IgG1, kappa, V domains shown) VH: AVTLDESGGGLQTPGGALSLVCKGSGFTFSSFNMFWVRQAPGKGLEWVAGIGKDGVPKYGAAVDGRATISKDNGQSTMRLQLNNLRAEDTGTYFCAKAAGGCSYDWCGIYAGDIDTWGHGTEVIVSS VL: ASTQPSSVSANPGEAVKITCSGGSGSYYGWYQQKSPGSAPVTVIYNNNQRPSDIPSRFSGSKSGSTATLTITGVQAEDEAVYFCGGYDSSSGHGGIFGAGTTLTVLG
11.1
